- TESTED_TARGET: Cytochrome P450 2D6 (Homo sapiens)
- TEST_NAME: Cytochrome panel assay with activity outcomes
- CONDITION_LABEL: recombinant CYP, pro-luciferin dealkylation, luminescence, p450-cyp2d6; series mostly up to 57.1 µM
Screen size: about 16,000 compounds; about 2,600 (16%) were called active. About 20% were inconclusive and are not listed. Calls come from the whole dose curve; as a rule, active = well fitted curve in the direction sought with a large enough effect; inconclusive = small, poorly fitted or top-dose-only effect, or effect the other way; inactive = no such curve, though single readings can be large or run the other way. These entries were drawn from the full list.
The categories you may choose from are active, inactive

{"COMPOUND": "COc1ccc(-c2cc(C(F)(F)F)n3nc(C(=O)N4CCCCC4)cc3n2)cc1", "TESTED_TARGET": "Cytochrome P450 2D6 (Homo sapiens)", "LABEL_VALUE": "inactive"}
{"COMPOUND": "Cc1nc2ccccc2c(=O)n1NC(=O)c1ccccc1Cl", "TESTED_TARGET": "Cytochrome P450 2D6 (Homo sapiens)", "LABEL_VALUE": "inactive"}
{"COMPOUND": "O=S(=O)(c1ccccc1)N1CCC2(CC1)CN(Cc1ccccc1)C2", "TESTED_TARGET": "Cytochrome P450 2D6 (Homo sapiens)", "LABEL_VALUE": "active"}
{"COMPOUND": "Cc1ccc(C(=O)Oc2cc(C)n(C)c(=O)c2)cc1", "TESTED_TARGET": "Cytochrome P450 2D6 (Homo sapiens)", "LABEL_VALUE": "inactive"}
{"COMPOUND": "CNC(=O)CCc1nc(-c2ccc(C(C)(C)C)cc2)no1", "TESTED_TARGET": "Cytochrome P450 2D6 (Homo sapiens)", "LABEL_VALUE": "inactive"}
{"COMPOUND": "N#Cc1ccc(CN2CCCC3(CCN(S(=O)(=O)c4ccccc4)CC3)C2)cc1", "TESTED_TARGET": "Cytochrome P450 2D6 (Homo sapiens)", "LABEL_VALUE": "active"}
{"COMPOUND": "Nc1c(N=Nc2cccc(Cl)c2)c(=O)[nH]n1-c1ccccc1", "TESTED_TARGET": "Cytochrome P450 2D6 (Homo sapiens)", "LABEL_VALUE": "inactive"}
{"COMPOUND": "N[C@@H](Cc1cc(-c2ccc(Cl)cc2Cl)cc(CP(=O)(O)O)c1O)C(=O)O", "TESTED_TARGET": "Cytochrome P450 2D6 (Homo sapiens)", "LABEL_VALUE": "inactive"}
{"COMPOUND": "N#Cc1ccc(CN2CCC3(CC2)CCN(S(=O)(=O)c2ccccc2)CC3)cc1", "TESTED_TARGET": "Cytochrome P450 2D6 (Homo sapiens)", "LABEL_VALUE": "inactive"}
{"COMPOUND": "COc1cccc(-c2csc(N3CCN(CC(=O)NNC(=O)c4ccc(Cl)cc4)CC3)n2)c1", "TESTED_TARGET": "Cytochrome P450 2D6 (Homo sapiens)", "LABEL_VALUE": "inactive"}

Task item: // outcome(item) with item = "CN(C)CCCNC(=O)CCc1nc2ccccc2c(=O)[nH]1"
Reply: inactive

Task item: // outcome(item) with item = "O=S(=O)(c1ccccc1)N1CCC2(CCCN(Cc3ccncc3)C2)CC1"
Reply: active
